Values were extracted from ChEMBL document CHEMBL1201862.

Measured GI50 values are reported for all entries that follow.
- System: SK-MEL-5
- measurement-description: NCI tumour cell line growth inhibition, 48 h
The source made the active and inactive calls. Cut-off read from the data, not from the text of the source: active = GI50 up to about 1.1 µM and inactive = higher.
observed-property: GI50

# molecule, observed-result
data = [
    ("O=C1C(C(c2ccc([N+](=O)[O-])cc2)N2CCOCC2)=C(O)C(c2ccccc2)N1c1ccccc1 (stereo unspecified)", "> 10 µM (inactive)"),
    ("CC(C)(Cc1ccccc1)NC1=NCCO1", "> 100 µM (inactive)"),
    ("CCC/C(Cl)=N\\OC(=O)Nc1ccc(Br)cc1", "14.6 µM (inactive)"),
    ("CNC(=O)N1CCN(C(=O)NC)CCN(C(=O)NC)CC1", "> 100 µM (inactive)"),
    ("Cc1ccc(/N=N\\c2c(O)c(S(=O)(=O)O)cc3cc(S(=O)(=O)O)ccc23)c(C)c1", "> 100 µM (inactive)"),
    ("O=c1cccccc1NCCCCNc1cccccc1=O", "30 µM (inactive)"),
]

====

- Tested on: LOX IMVI
- measurement-description: NCI tumour cell line growth inhibition, 48 h
Calls of active or inactive are those of the source. Cut-off read from the data, not from the text of the source: active = GI50 up to about 1.1 µM and inactive = higher.
Outcomes: active, inactive

# compound, measured-on, answer-label
data = [
    ("Fc1cc(-c2cc(-c3ccccc3)n[nH]2)c(Cl)cc1Cl", "LOX IMVI", "inactive"),
    ("Clc1ccc(-c2c3nc(c(-c4ccc(Cl)cc4)c4ccc([nH]4)c(-c4ccc(Cl)cc4)c4nc(c(-c5ccc(Cl)cc5)c5ccc2[nH]5)C=C4)C=C3)cc1", "LOX IMVI", "inactive"),
    ("COc1cc2c(c(OC)c1OC)-c1ccc(SC)c(=O)cc1[C@@H](NC(=O)c1ccc([N+](=O)[O-])cc1)CC2", "LOX IMVI", "active"),
    ("O=C(CC12C3C4C1C1C2C3C41CC(=O)NO)NO (centres undefined)", "LOX IMVI", "inactive"),
]

====

- System: UO-31
- measurement-description: NCI tumour cell line growth inhibition, 48 h
Active and inactive are the calls of the source. No stated cut-off is given here; in the data, active = GI50 up to about 1.1 µM and inactive = higher.
Outcome codes: active, inactive

# compound, answer-label
rows = [
    ("O=C1OC(C(O)C(O)C(O)CO)C(O)C1O (configuration not stated)", "inactive"),
    ("Cc1nc2c(nc1C)-c1[nH]c3c(c1C(=O)C2=O)CCCC3=O", "inactive"),
    ("COc1ccc2c(CCNC(C)=O)c(C(C)=O)[nH]c2c1", "inactive"),
    ("Cc1cc2c(-c3ccccc3)cc(=O)[nH]c2cc1N", "inactive"),
    ("CC1CCP(=O)(c2ccccc2)CC1 (configuration not stated)", "inactive"),
    ("COc1ccc(-c2onc(-c3ccc([N+](=O)[O-])cc3)c2C2=NCCN2)cc1", "inactive"),
    ("O=c1cccccc1NCCCCNc1cccccc1=O", "inactive"),
    ("Cc1ccccc1OC(C)C(=O)NN1C(=O)CSC1c1ccccc1 (configuration not stated)", "inactive"),
    ("COC(=O)C1C(=O)O[C@@H](c2ccc(OC)cc2)C1C(=O)OC (some centres not stated)", "inactive"),
    ("Fc1cc(-c2cc(-c3ccccc3)n[nH]2)c(Cl)cc1Cl", "inactive"),
    ("O=c1c2cc(Br)cc(Br)c2[nH]c(=S)n1-c1ccccc1", "inactive"),
    ("C=CCP(=O)(CC=C)C(Cl)Cl", "inactive"),
    ("COc1cc2c(cc1OC)-c1cc3ccccc3c(=O)n1CC2", "inactive"),
    ("COC(=O)C1=C2SCc3ccc(cc3)CSC3=C(C(=O)OC)SC(=C(S2)S1)S3", "inactive"),
    ("COc1ccc2c(c1)C(=O)[C@@](Nc1ccc(C=O)cc1)(OC)[C@@](OC)(c1ccc([N+](=O)[O-])cc1)O2", "inactive"),
    ("Cc1cccc(C)c1N1C(=O)C2c3[nH]c4ccccc4c3C3CCC(C(C)(C)C)CC3C2C1=O (configuration not stated)", "inactive"),
    ("CCCNc1[nH]c(C(=O)c2ccccc2)c(N)c1C(=S)Nc1ccccc1", "inactive"),
    ("Nc1nc2ccc(Sc3ccc4nc(N)[nH]c(=O)c4c3)cc2c(=O)[nH]1", "inactive"),
    ("COc1ccccc1/N=C1\\SCCN1C(=S)Nc1ccc(S(=O)(=O)/N=C/N(C)C)cc1", "inactive"),
    ("COc1cccc(C2c3cc4c(cc3OC(Nc3ccccc3)C2C)OCO4)c1OC (configuration not stated)", "inactive"),
    ("Cc1nn(C(=O)c2ccccc2O)c2c1C(c1ccc(O)cc1O)SC(=N)N2 (configuration not stated)", "inactive"),
    ("COc1cccc(-c2cc(O)c3cc(N4CCCC4)ccc3n2)c1", "active"),
    ("CSc1ccc2c(cc1=O)C(NC(=O)c1ccc(OC(C)=O)cc1)CCc1cc(O)c(O)c(O)c1-2 (configuration not stated)", "inactive"),
    ("CN(CCNC(=S)c1cn(C)c2c1ccc1ccccc12)CCNC(=S)c1cn(C)c2c1ccc1ccccc12", "inactive"),
    ("CCOC(=O)CNC(=O)C(CSC(=O)N(O)c1ccc(Br)cc1)NC(=O)CCC(N)C(=O)OCC (configuration not stated)", "inactive"),
    ("CC(=O)/C=C/c1ccc(C2CC(C)=Nc3c(ccc4c3C(=O)c3ccccc3C4=O)N2)cc1 (configuration not stated)", "inactive"),
    ("CC(=O)C(C)(C)CCC(C)(C)C(C)=O", "inactive"),
    ("Nc1c(Cl)ncnc1NCCCCCCCCCCCCNc1ncnc(Cl)c1N", "active"),
    ("N#CC(C(=N/O)/C(=N/O)C(C#N)c1ccc(Cl)cc1)c1ccc(Cl)cc1 (configuration not stated)", "inactive"),
    ("CC(C)(C)C(=O)Nc1ccccc1Br", "inactive"),
    ("O=c1[nH]c(=S)c2cc3c(=S)[nH]c(=O)n(CCO)c3nc2n1CCO", "inactive"),
    ("C[N+]12CCCCC1C(CN1C(=O)Cc3c4ccccc4c(c4ccccc34)CC1=O)CCC2 (configuration not stated)", "inactive"),
    ("CN(CCCNC(=O)c1cn(C)c2c1Cc1ccccc1-2)CCCNC(=O)c1cn(C)c2c1Cc1ccccc1-2", "inactive"),
    ("C=CCOCn1cnc2c(N)ncnc21", "inactive"),
    ("NC1=C(N2CCOCC2)C(=O)NC2=N/C(=C\\c3ccccc3)C(=O)N21", "inactive"),
    ("O=C(CCc1nnc2s/c(=C\\c3ccccc3[N+](=O)[O-])c(=O)n12)Nc1cc(Cl)c(Cl)cc1Cl", "inactive"),
    ("C=C(C(=O)C(=O)Oc1ccc(Cl)cc1)C(=O)c1ccc(C)cc1", "inactive"),
    ("C=CC(c1ccccc1)[C@@]1(OC(C)=O)C(=O)C(=O)OC1C1COC(C)(C)O1 (some centres not stated)", "inactive"),
    ("N#Cc1nc(/C=C/c2ccccc2)oc1N", "inactive"),
    ("O=c1[nH]c(N/N=C\\C(O)C(O)C(O)CO)nc2ccccc12 (configuration not stated)", "inactive"),
    ("Cc1cn(C2CC(N=[N+]=[N-])C(COP(=O)(O)OCC3OC(n4cc(F)c(=O)[nH]c4=O)CC3O)O2)c(=O)[nH]c1=O (configuration not stated)", "active"),
    ("COc1cc(-c2[o+]c3cc(O)cc(OC4OC(CO)C(O)C(O)C4O)c3cc2OC2OC(CO)C(O)C(O)C2O)cc(OC)c1O (configuration not stated)", "inactive"),
]
